test system: CP286; assay: qHTS profiling for inhibitors of Plasmodium falciparum proliferation (AID 504749); further: nearly all actives have a fitted effect of over 60% in size; settings: P. falciparum in erythrocytes, SYBR Green DNA, 72 h; series mostly up to 28.7 µM
Results filed as inconclusive are left out. The source made the active and inactive calls. The call rests on the fitted dose curve; in most records, active means well fitted inhibition curve with a large enough effect; inconclusive means small, poorly fitted or top-dose-only effect; inactive means flat fitted curve, though single readings scatter.
Form entry, call: pick from Y for active, N for inactive

Use these answered entries as a reference point.
[
  {
    "molecule": "CC1=CCC2CC1C2(C)C (stereo not drawn)",
    "answer-label": "N"
  },
  {
    "molecule": "FCOC(C(F)(F)F)C(F)(F)F",
    "answer-label": "N"
  },
  {
    "molecule": "CC(=O)NCCCS(=O)(=O)O",
    "answer-label": "N"
  },
  {
    "molecule": "Cc1ccc(S(=O)(=O)O)cc1C",
    "answer-label": "N"
  },
  {
    "molecule": "CC(=O)Nc1c(I)c(C(=O)O)c(I)c(N(C)C(C)=O)c1I",
    "answer-label": "N"
  },
  {
    "molecule": "CC(C)NCC(O)COc1ccccc1-n1cccc1 (stereo not drawn)",
    "answer-label": "N"
  }
]

[Q] What outcome does the record of this test show for `CCSc1ccc2c(c1)N(CCCN1CCN(C)CC1)c1ccccc1S2` ?
[A] N

[Q] What outcome does the record of this test show for `CC/C=C\C/C=C\C/C=C\C/C=C\C/C=C\CCCC(=O)O` ?
[A] N

----------
assay: Drug repurposing screens with cells derived from glioblastoma tumor samples (AID 1345199); conditions: GBM patient neurospheres viability, ATP luminescence, 48 h; at 45.9 µM (top of the series); tumour line B; further: nearly all actives have a fitted effect of over 40% in size
Inconclusive results are not listed.
Lab note: compare activity, negative = cell killing with -10%, writing fulfilled if less and not fulfilled if equal or more.

[
  {
    "compound": "O=P(O)(O)CP(=O)(O)O",
    "answer-label": "not fulfilled"
  },
  {
    "compound": "CC(C)c1ncc([N+](=O)[O-])n1C",
    "answer-label": "not fulfilled"
  },
  {
    "compound": "O=C(NNCS(=O)(=O)O)c1ccncc1",
    "answer-label": "not fulfilled"
  },
  {
    "compound": "O=C(OC[C@H]1O[C@](O)(COC(=O)c2cccnc2)[C@@H](OC(=O)c2cccnc2)[C@@H]1OC(=O)c1cccnc1)c1cccnc1",
    "answer-label": "fulfilled"
  }
]

[Q] Criterion: activity, negative = cell killing strictly below -10%. Is it met by FC(F)OC(Cl)C(F)(F)F (stereo unspecified) ?
[A] not fulfilled

[Q] Criterion: activity, negative = cell killing strictly below -10%. Is it met by `NCC[C@H](O)C(=O)N[C@@H]1C[C@H](N)[C@@H](O[C@H]2O[C@H](CN)CC[C@H]2N)[C@H](O)[C@H]1O[C@H]1O[C@H](CO)[C@@H](O)[C@H](N)[C@H]1O` ?
[A] fulfilled

[Q] Criterion: activity, negative = cell killing strictly below -10%. Is it met by `C[C@]12CC[C@@H]3c4ccc(O)cc4CC[C@H]3[C@@H]1CC[C@@H]2OP(=O)(O)O` ?
[A] not fulfilled

[Q] Criterion: activity, negative = cell killing strictly below -10%. Is it met by O=S(=O)(O)CC(S)CS (stereo unspecified) ?
[A] fulfilled

[Q] Criterion: activity, negative = cell killing strictly below -10%. Is it met by `C[C@@H]1C/C=C/C=C/C=C/C=C/[C@H](O[C@@H]2O[C@H](C)[C@@H](O)[C@H](N)[C@@H]2O)C[C@@H]2O[C@](O)(C[C@@H](O)C[C@H]3O[C@@H]3/C=C/C(=O)O1)C[C@H](O)[C@H]2C(=O)O` ?
[A] fulfilled
